Tested on: cancer cell lines from the cancer cell line encyclopedia (CCLE)
Experiment: Cell line profiling (CLiP) proliferation experiment
Format: cell-based
Settings: Homo sapiens, JVM-2, JVM-2; read-out: Crossing Point
endpoint label: IC50 (µM)
Numbers only, in µM.

Req: Lab note: need IC50 for CC(C)[C@@]12C[C@@H](O)[C@@](C)(O1)[C@@H]1CC[C@@H](C)[C@H]1[C@@H]2OC(=O)/C=C/c1ccccc1 on cancer cell lines from the cancer cell line encyclopedia (CCLE), anyone have it?
Resp: 21

====

System: cancer cell lines from the cancer cell line encyclopedia (CCLE)
Test: Cell line profiling (CLiP) proliferation experiment
Type: cell-based
Details: Homo sapiens, ESS-1, cell line ESS-1, endometrium; read-out: Crossing Point
endpoint label: pIC50
Numbers only, as −log10 of the molar value.

Req: What value of pIC50 has been reported for the following compound? CC(C)[C@@]12C[C@@H](O)[C@@](C)(O1)[C@@H]1CC[C@@H](C)[C@H]1[C@@H]2OC(=O)/C=C/c1ccccc1
Resp: 4.73

====

System: cancer cell lines from the cancer cell line encyclopedia (CCLE)
Assay: Cell line profiling (CLiP) proliferation experiment
Assay type: cell-based
Conditions: Homo sapiens, JJN-3, cell line JJN-3; read-out: Crossing Point
pIC50: −log10 of the molar value.
endpoint label: pIC50

Req: Lab note: need pIC50 for CC(C)[C@@]12C[C@@H](O)[C@@](C)(O1)[C@@H]1CC[C@@H](C)[C@H]1[C@@H]2OC(=O)/C=C/c1ccccc1 on cancer cell lines from the cancer cell line encyclopedia (CCLE), anyone have it?
Resp: < 4.52

====

Test system: cancer cell lines from the cancer cell line encyclopedia (CCLE)
Assay: Cell line profiling (CLiP) proliferation experiment
Assay type: cell-based
Conditions: Homo sapiens, Hs 294T, cell line Hs 294T; read-out: Crossing Point
endpoint label: IC50

Req: Lab note: need IC50 for CC(C)[C@@]12C[C@@H](O)[C@@](C)(O1)[C@@H]1CC[C@@H](C)[C@H]1[C@@H]2OC(=O)/C=C/c1ccccc1 on cancer cell lines from the cancer cell line encyclopedia (CCLE), anyone have it?
Resp: > 30 µM

====

Test system: cancer cell lines from the cancer cell line encyclopedia (CCLE)
Test: Cell line profiling (CLiP) proliferation experiment
Format: cell-based
Settings: Homo sapiens, HCC44, cell line HCC-44, lung; read-out: Crossing Point
endpoint label: IC50
# number then unit; no other words

Req: What value of IC50 has been reported for the following compound? CC(C)[C@@]12C[C@@H](O)[C@@](C)(O1)[C@@H]1CC[C@@H](C)[C@H]1[C@@H]2OC(=O)/C=C/c1ccccc1
Resp: 22.8 µM

====

Tested on: cancer cell lines from the cancer cell line encyclopedia (CCLE)
Test: Cell line profiling (CLiP) proliferation experiment
Assay type: cell-based
Details: Homo sapiens, MKN-45, MKN-45 (stomach); read-out: Crossing Point
pIC50: −log10 of the molar value.
endpoint label: pIC50

Req: Lab note: need pIC50 for CC(C)[C@@]12C[C@@H](O)[C@@](C)(O1)[C@@H]1CC[C@@H](C)[C@H]1[C@@H]2OC(=O)/C=C/c1ccccc1 on cancer cell lines from the cancer cell line encyclopedia (CCLE), anyone have it?
Resp: < 4.52

====

System: cancer cell lines from the cancer cell line encyclopedia (CCLE)
Experiment: Cell line profiling (CLiP) proliferation experiment
Format: cell-based
Details: Homo sapiens, WM793, WM-793 cell line; skin; NS; read-out: Crossing Point
endpoint label: IC50

Req: What value of IC50 has been reported for the following compound? CC(C)[C@@]12C[C@@H](O)[C@@](C)(O1)[C@@H]1CC[C@@H](C)[C@H]1[C@@H]2OC(=O)/C=C/c1ccccc1
Resp: > 30 µM

====

System: cancer cell lines from the cancer cell line encyclopedia (CCLE)
Assay: Cell line profiling (CLiP) proliferation experiment
Assay type: cell-based
Conditions: KURAMOCHI (ovary); read-out: Inflection Point
endpoint label: EC50 (µM)
One number for each entry, in µM.

Req: What value of EC50 has been reported for the following compound? CC(C)[C@@]12C[C@@H](O)[C@@](C)(O1)[C@@H]1CC[C@@H](C)[C@H]1[C@@H]2OC(=O)/C=C/c1ccccc1
Resp: 16.1

====

System: cancer cell lines from the cancer cell line encyclopedia (CCLE)
Assay: Cell line profiling (CLiP) proliferation experiment
Format: cell-based
Details: Homo sapiens, HCT-116, cell line HCT 116; read-out: Crossing Point
endpoint label: IC50

Req: What value of IC50 has been reported for the following compound? CC(C)[C@@]12C[C@@H](O)[C@@](C)(O1)[C@@H]1CC[C@@H](C)[C@H]1[C@@H]2OC(=O)/C=C/c1ccccc1
Resp: > 30 µM

====

System: cancer cell lines from the cancer cell line encyclopedia (CCLE)
Test: Cell line profiling (CLiP) proliferation experiment
Assay type: cell-based
Details: Homo sapiens, COLO-680N, oesophagus, squamous_cell_carcinoma; read-out: Crossing Point
endpoint label: IC50

Req: What value of IC50 has been reported for the following molecule? CC(C)[C@@]12C[C@@H](O)[C@@](C)(O1)[C@@H]1CC[C@@H](C)[C@H]1[C@@H]2OC(=O)/C=C/c1ccccc1
Resp: > 30 µM

====

System: cancer cell lines from the cancer cell line encyclopedia (CCLE)
Assay: Cell line profiling (CLiP) proliferation experiment
Format: cell-based
Details: A4/Fuk cells; read-out: Crossing Point
Procedure: Compound profiling experiment and data analysis was performed as previously described. Data was imported and plotted using the Tibco Spotfire DXP application. Lines were categorized as sensitive, intermediate and refractory as follows: Amax<-40 & Inflection Point <2 ~ Sensitive, Amax>-20 & Inflection Point >10 ~ Refractory, all else were called Intermediate. Cancer Cell line HG-U133 Plus 2 data was processed and normalized as described. […]
endpoint label: pIC50
Answers are plain numbers, as −log10 of the molar value.

Req: What value of pIC50 has been reported for the following compound? CC(C)[C@@]12C[C@@H](O)[C@@](C)(O1)[C@@H]1CC[C@@H](C)[C@H]1[C@@H]2OC(=O)/C=C/c1ccccc1
Resp: 4.74

====

Test system: cancer cell lines from the cancer cell line encyclopedia (CCLE)
Assay: Cell line profiling (CLiP) proliferation experiment
Assay type: cell-based
Conditions: Homo sapiens, WM 266-4, WM-266-4 cell line; skin; NS; read-out: Crossing Point
endpoint label: IC50

Req: What value of IC50 has been reported for the following compound? CC(C)[C@@]12C[C@@H](O)[C@@](C)(O1)[C@@H]1CC[C@@H](C)[C@H]1[C@@H]2OC(=O)/C=C/c1ccccc1
Resp: > 30 µM

====

System: cancer cell lines from the cancer cell line encyclopedia (CCLE)
Test: Cell line profiling (CLiP) proliferation experiment
Assay type: cell-based
Conditions: Homo sapiens, KMS-12-BM, KMS-12-BM cells; read-out: Inflection Point
endpoint label: pEC50
Give bare numbers, as −log10 of the molar value.

Req: What value of pEC50 has been reported for the following compound? CC(C)[C@@]12C[C@@H](O)[C@@](C)(O1)[C@@H]1CC[C@@H](C)[C@H]1[C@@H]2OC(=O)/C=C/c1ccccc1
Resp: 4.60

====

Tested on: cancer cell lines from the cancer cell line encyclopedia (CCLE)
Experiment: Cell line profiling (CLiP) proliferation experiment
Assay type: cell-based
Details: KMS-26, KMS-26; read-out: Crossing Point
endpoint label: pIC50
Answers are plain numbers, as −log10 of the molar value.

Req: What value of pIC50 has been reported for the following molecule? CC(C)[C@@]12C[C@@H](O)[C@@](C)(O1)[C@@H]1CC[C@@H](C)[C@H]1[C@@H]2OC(=O)/C=C/c1ccccc1
Resp: 4.81

====

System: cancer cell lines from the cancer cell line encyclopedia (CCLE)
Experiment: Cell line profiling (CLiP) proliferation experiment
Assay type: cell-based
Conditions: DAN-G cells; read-out: Crossing Point
endpoint label: IC50 (µM)
Answers are plain numbers, in µM.

Req: What value of IC50 has been reported for the following molecule? CC(C)[C@@]12C[C@@H](O)[C@@](C)(O1)[C@@H]1CC[C@@H](C)[C@H]1[C@@H]2OC(=O)/C=C/c1ccccc1 [Englerin B]
Resp: 29.3

====

Test system: cancer cell lines from the cancer cell line encyclopedia (CCLE)
Test: Cell line profiling (CLiP) proliferation experiment
Type: cell-based
Details: Homo sapiens, NCI-H1792, NCI-H1792, lung, adenocarcinoma; read-out: Crossing Point
Protocol: Compound profiling experiment and data analysis was performed as previously described. Data was imported and plotted using the Tibco Spotfire DXP application. Lines were categorized as sensitive, intermediate and refractory as follows: Amax<-40 & Inflection Point <2 ~ Sensitive, Amax>-20 & Inflection Point >10 ~ Refractory, all else were called Intermediate. Cancer Cell line HG-U133 Plus 2 data was processed and normalized as described. […]
endpoint label: pIC50
Numbers only, as −log10 of the molar value.

Req: What value of pIC50 has been reported for the following compound? CC(C)[C@@]12C[C@@H](O)[C@@](C)(O1)[C@@H]1CC[C@@H](C)[C@H]1[C@@H]2OC(=O)/C=C/c1ccccc1
Resp: 4.60

====

Tested on: cancer cell lines from the cancer cell line encyclopedia (CCLE)
Assay: Cell line profiling (CLiP) proliferation experiment
Format: cell-based
Conditions: cell line 23132/87; stomach; adenocarcinoma; read-out: Crossing Point
endpoint label: IC50 (µM)
One number for each entry, in µM.

Req: What value of IC50 has been reported for the following molecule? CC(C)[C@@]12C[C@@H](O)[C@@](C)(O1)[C@@H]1CC[C@@H](C)[C@H]1[C@@H]2OC(=O)/C=C/c1ccccc1 [Englerin B]
Resp: 15.3
